Ref: ChEMBL document CHEMBL1201862

Tested on: SNB-19
TEST SUMMARY: NCI tumour cell line growth inhibition, 48 h
The source made the active and inactive calls. Rule as the data show it: active = GI50 up to about 1.1 µM and inactive = higher.
MEASUREMENT LABEL: GI50

>>> df
                                   molecule      endpoint_result
0  Cc1ccc(C)c(N2C(=O)C(=O)C(c3nc4ccccc4s3)/C(=N/N)C2=O)c1 (stereo not given)  > 100 µM (inactive)
1  CC(=O)[C@H]1[C@@H](OCc2ccccc2)O[N+]([O-])=C(C)[C@@H]1c1ccccc1   97.3 µM (inactive)
2  CCOP(=O)(OCC)/C(C#N)=C/c1coc2cc(C)cc(C)c2c1=O  > 100 µM (inactive)
3      CCOC(=O)N1c2ccccc2S(=O)(=O)c2ccccc21  > 100 µM (inactive)
4  COC(=O)c1ccccc1C1CN=NC12Cc1c(ccc3c1CCC3)C2=O (stereo not given)  > 100 µM (inactive)
